- System: NCI-H23 lung
- procedure.summary: NCI-60 one-dose screen, 48 h (100 = growth as untreated, 0 = no growth, -100 = all killed)
- reported.conditions: 10 µM unless noted
The panel holds about 83,000 compounds, 20% with a hit somewhere; the sample as a whole holds those more often.
readout.label: growth (%)

• COC(=O)c1nc(=S)[nH]c(C(=O)OC)c1C(=O)c1ccccc1 = 101
• O=S(=O)(O)c1ccc2cc(O)ccc2c1 = 98.3
• Cc1ccc([N+](=O)[O-])cc1Br = 110
• COc1ccc(CCNC(=S)NN)cc1OC = 99.5
• O=C(O)COc1ccccc1F = 106
• Nc1c(Cl)cc2c(c1Br)C(=O)c1ccccc1C2=O = 88.2
• Nc1ccc2ccc(NS(=O)(=O)N3CCCCC3)cc2c1 = 43.8
• NC(=O)Cc1nc(O)cc(=O)[nH]1 = 107
• CC(=O)Nc1cscc1NC(C)=O = 103
• CC(C)(C)OC(=O)CC1(O)CCCCC1 = 101
• O=C1Cc2ccccc2C(=O)N1 = 103
• CC1CCC(=O)N1c1ccc(N)cc1 (stereo not drawn) = 103
• CC1(C)CC(=O)NC1=O = 96.5
• O=P(O)(O)OC1C(OP(=O)(O)O)C(OP(=O)(O)O)C(OP(=O)(O)O)C(OP(=O)(O)O)C1OP(=O)(O)O.[Cu+2] (stereo not drawn) = 93.3
• O=c1[nH]c(=O)c2[nH]c(=O)[nH]c2[nH]1 = 92.8
• Cc1cc(-c2ccc(N=Nc3c(C)nn(-c4ccc(S(=O)(=O)O)cc4)c3O)c(C)c2)ccc1N=Nc1ccc(O)c(C(=O)O)c1 = 99.1
• CS(=O)(=O)c1nsc(N)n1 = 94.7
• Cc1c(Cl)c(C)c(Cc2c(C)c(Cl)c(C)c(Cl)c2O)c(O)c1Cl = -13

Provenance of the data: PubChem BioAssay (NCI)
